Values compiled from paper PMC6154339.

System: Daphnia magna
Settings: incubation period 24 h
Checkbox rule: LC50 lower than 10 µM = Satisfied; LC50 not lower than 10 µM = Not satisfied.

Observe how each entry below is paired with its result.
MOLECULE: COc1cccc(C=NNC(=O)c2ccncc2)c1[O-].O.O.[Cl-].[Cu+2] [complex 1, [Cu(L)(Cl)]·2H2O]
ASSIGNED_CLASS: Not satisfied
--
MOLECULE: CC(=O)[O-].COc1cccc(C=NNC(=O)c2ccncc2)c1[O-].[Cu+2] [complex 2, [Cu(L)(CH3COO)]]
ASSIGNED_CLASS: Not satisfied
--
MOLECULE: COc1cccc(C=NNC(=O)c2ccncc2)c1[O-].O.O=[N+]([O-])[O-].[Cu+2] [complex 3, [Cu(L)(NO3)]·H2O]
ASSIGNED_CLASS: Not satisfied

Query block: Strictly below 10 µM: is that where LC50 of `[Cl][Cu][Cl]` sits?
Result block: Satisfied

Query block: Strictly below 10 µM: is that where LC50 of `CC(=O)[O-].CC(=O)[O-].[Cu+2]` sits?
Result block: Satisfied

Query block: Strictly below 10 µM: is that where LC50 of `[Cu+2].[O-][Cl+3]([O-])([O-])[O-].[O-][Cl+3]([O-])([O-])[O-]` sits?
Result block: Satisfied

Query block: Strictly below 10 µM: is that where LC50 of COc1cccc(C=NNC(=O)c2ccncc2)c1[O-].COc1cccc(C=NNC(=O)c2ccncc2)c1[O-].[Co+2] [complex 5, [Co(L)2]] sits?
Result block: Not satisfied

Query block: Strictly below 10 µM: is that where LC50 of `[Cl-].[Cl-].[Zn+2]` sits?
Result block: Not satisfied
